- System: Influenza A virus
- TEST_PROTOCOL: Antiviral activity against influenza H1N1 virus in MDCK cells assessed as reduction of virus-induced cytopathicity by visual cytopathic effect scoring method
- Assay type: functional, organism-based
pEC50: −log10 of the molar value.
OBSERVABLE: pEC50

// worked examples, pEC50 included
INSERT INTO results (compound, observable, test_value) VALUES
  ('NC(=O)c1ncn([C@@H]2O[C@H](CO)[C@@H](O)[C@H]2O)n1 [RIBAVIRIN]', 'pEC50', 3.05),
  ('Cc1cc(C)cc(S(=O)(=O)c2c(C(=O)NC(C)C(N)=O)[nH]c3ccc(Br)cc23)c1 (stereo not given)', 'pEC50', '< 3.10'),
  ('Cc1cc(C)cc(S(=O)(=O)c2c(C(=O)NCCC(N)=O)[nH]c3ccc(Br)cc23)c1', 'pEC50', '< 5.40'),
  ('Cc1cc(C)cc(S(=O)(=O)c2c(C(=O)NCC(N)=O)[nH]c3ccc([N+](=O)[O-])cc23)c1', 'pEC50', '< 4.70');

Pending compound:
Problem: Answer with the recorded pEC50 of Cc1cc(C)cc(S(=O)(=O)c2c(C(=O)NCCC(N)=O)[nH]c3ccc([N+](=O)[O-])cc23)c1 only.
Result: < 4.70
